These measurements were taken from paper PMC11208559.

measurement-description: in vivo
run-conditions: CD-1, mouse, iv, 10 mg/kg
measurement-label: Cmax (nM)

COC(=O)c1c(O)cc(O)c(Cl)c1CCc1ccccc1Cc1ccc(F)cc1 1070

----------
measurement-description: physchem
run-conditions: pH 6.8, aqueous buffer, thermodynamic from solid
measurement-label: solubility at 24 h (µM)

COC(=O)c1c(O)cc(O)c(Cl)c1CCc1ccccc1Cc1ccc(F)cc1 0.074

----------
measurement-description: in vivo
run-conditions: CD-1, mouse, iv, 10 mg/kg
measurement-label: half-life (min)

COC(=O)c1c(O)cc(O)c(Cl)c1CCc1ccccc1Cc1ccc(F)cc1 38.4

----------
measurement-description: in vivo
run-conditions: CD-1, mouse, iv, 1 mg/kg
measurement-label: Cmax (nM)

COC(=O)c1c(O)cc(O)c(Cl)c1CCc1ccccc1Cc1ccc(F)cc1 418

----------
measurement-description: in vivo
run-conditions: CD-1, mouse, iv, 1 mg/kg
measurement-label: Tmax (min)

COC(=O)c1c(O)cc(O)c(Cl)c1CCc1ccccc1Cc1ccc(F)cc1 4.98

----------
measurement-description: in vivo
run-conditions: CD-1, mouse, iv, 10 mg/kg
measurement-label: AUC(0-inf) (µM·h)

COC(=O)c1c(O)cc(O)c(Cl)c1CCc1ccccc1Cc1ccc(F)cc1 0.46

----------
measurement-description: in vivo
run-conditions: CD-1, mouse, iv, 1 mg/kg
measurement-label: half-life (min)

COC(=O)c1c(O)cc(O)c(Cl)c1CCc1ccccc1Cc1ccc(F)cc1 36

----------
measurement-description: in vitro
Format: in vitro ADME, CD-1 mice
run-conditions: male, CD-1, mouse, microsomes
Procedure: Metabolic stability of lead compounds was assessed in vitro by the method of Di et al.[32]. Briefly, mouse liver microsomes (Corning Life Sciences, Woburn, MA) were isolated from CD-1 mice (male mice, 8 − 10 weeks of age). […] Metabolic stability was determined following 0, 5, 15, 30, and 60 min of incubation time. The samples were analyzed by reversed phase LC using a triple quadrupole mass spectrometer. […]
Listed here are compounds together with their documented half-life at 1 µM.

compound	half-life at 1 µM, min
CCCc1cc2cc(-n3nc(C)c4c3CC(C)(C)CC4=O)cc(N3CCC(O)CC3)c2c(=O)[nH]1 [KUNB106]	63
COC(=O)c1c(O)cc(O)c(Cl)c1CCc1ccccc1Cc1ccc(F)cc1 [KUNG65]	32
